# Tested on: A2780
# assay notes: Inhibitory activity against ovarian tumor cell line A2780 after 72 hr continuous exposure to compound
# Type: functional, cell-based
# run conditions: Homo sapiens, A2780, 72 h
pIC50: −log10 of the molar value.
Decide by pIC50: equal to or exceeding 4 means met, less means not met.

compound="CCOC(=O)C1C(C(=O)O)[C@@H]2CC[C@H]1O2 (single isomer, unassigned)" label_class="not met"
compound="COC1OC(=O)[C@H]2[C@@H]1[C@@H]1CC[C@H]2O1 (stereo partly specified)" label_class="not met"
compound="CCCOC1OC(=O)[C@H]2[C@@H]1[C@@H]1CC[C@H]2O1 (stereo partly specified)" label_class="not met"
compound=O=C1OC(=O)[C@H]2[C@@H]1[C@@H]1CC[C@H]2O1 label_class=met
compound=C[C@@]12C(=O)OC(=O)[C@]1(C)[C@H]1CC[C@@H]2O1 label_class=met

Each recorded value in this set is attributed to ChEMBL document CHEMBL1133252.
